Experiment: RPL19A-GFP modulators, yeast TOR pathway, confirmation, cell-based, S. cerevisiae, flow cytometry, cherry picks, mother/daughter gates (AID 2270)
Conditions: S. cerevisiae RPL19A-GFP strain, 3 h, measured here: mother cell gate, at 10 µM, stronger effect = lower value, 100 = same GFP as DMSO wells
Would you mind telling me the reported GFP response vs DMSO of each entry?
Hi! Could you send only the number? It should be in %, unit omitted.

Prompt: Note down GFP response vs DMSO recorded for CCc1ccc(-c2csc(NC(=O)COC(=O)CCc3nc4ccccc4s3)n2)cc1
Response: 106

Prompt: Note down GFP response vs DMSO recorded for C[C@]12CCC(=O)C=C1CC[C@@H]1[C@@H]2C(=O)C[C@@]2(C)[C@H]1CC[C@]2(O)C(=O)CO
Response: 98.1

Prompt: Note down GFP response vs DMSO recorded for O=S(=O)(c1ccc(Oc2ccccc2)cc1)N1CCOCC1
Response: 98.2

Prompt: Note down GFP response vs DMSO recorded for COc1ccccc1CNc1nc(S(=O)(=O)c2ccccc2)c(Cl)s1
Response: 96.5

Prompt: Note down GFP response vs DMSO recorded for COc1ccccc1OCC(=O)Sc1ccc(C)cc1
Response: 92.3

###

Assay: RPL19A-GFP modulators, yeast TOR pathway, confirmation, cell-based, S. cerevisiae, flow cytometry, cherry picks, mother/daughter gates (AID 2270)
Conditions: S. cerevisiae RPL19A-GFP strain, 3 h, measured here: mother cell gate, at 10 µM, stronger effect = lower value, 100 = same GFP as DMSO wells
Would you mind telling me the reported GFP response vs DMSO of each entry?
Hi! Could you send only the number? It should be in %, unit omitted.

Prompt: Note down GFP response vs DMSO recorded for Cc1nnc(OCc2nc3ccccc3n2C)c2ccccc12
Response: 101

Prompt: Note down GFP response vs DMSO recorded for COc1cccc(C(=O)Nc2ccc(NC(=O)c3cc4ccccc4o3)c(OC)c2)c1
Response: 103

Prompt: Note down GFP response vs DMSO recorded for Cc1ccc(C(C[N+](=O)[O-])n2nc(C)cc2C)cc1 (stereo unspecified)
Response: 93.6

Prompt: Note down GFP response vs DMSO recorded for O=C(N/N=C/c1cccc(Oc2ccccc2)c1)c1ccncc1
Response: 95.4

Prompt: Note down GFP response vs DMSO recorded for CCC(=O)Oc1oc(-c2ccccc2)nc1C=Nc1ccccc1OC
Response: 102

Prompt: Note down GFP response vs DMSO recorded for Cc1cc(NC(=O)c2cccnc2Cl)ccc1NC(=O)c1cc2ccccc2o1
Response: 94.5

###

Experiment: RPL19A-GFP modulators, yeast TOR pathway, confirmation, cell-based, S. cerevisiae, flow cytometry, cherry picks, mother/daughter gates (AID 2270)
Details: S. cerevisiae RPL19A-GFP strain, 3 h, measured here: mother cell gate, at 10 µM, stronger effect = lower value, 100 = same GFP as DMSO wells
Would you mind telling me the reported GFP response vs DMSO of each entry?
Hi! Could you send only the number? It should be in %, unit omitted.

Prompt: Note down GFP response vs DMSO recorded for Cc1ccn2c(NC(=O)c3ccco3)c(-c3ccccc3)nc2c1
Response: 96.6

Prompt: Note down GFP response vs DMSO recorded for CCc1nnc(NC(=O)c2ccc(S(=O)(=O)N(CC(C)C)CC(C)C)cc2)o1
Response: 102

Prompt: Note down GFP response vs DMSO recorded for Fc1ccc(C2CC(c3ccccc3)n3ncnc3N2)cc1 (stereo unspecified)
Response: 98

Prompt: Note down GFP response vs DMSO recorded for COc1cc(SSc2cc(OC)cc([N+](=O)[O-])c2N)c(N)c([N+](=O)[O-])c1
Response: 80.4

Prompt: Note down GFP response vs DMSO recorded for CN(C)CCCNc1cc(C(C)(C)C)nc2c(-c3ccc(Cl)cc3)cnn12
Response: 94.2

Prompt: Note down GFP response vs DMSO recorded for CC(=O)Nc1ccc(NC(=O)c2ccccc2F)cc1
Response: 98.6

Prompt: Note down GFP response vs DMSO recorded for CC(=O)Nc1ccc(NC(=O)c2nc(S(=O)(=O)Cc3ccccc3)ncc2Cl)cc1
Response: 96.9

Prompt: Note down GFP response vs DMSO recorded for CCC(CC)C(=O)Nc1cccc(/C(C)=N/NC(=O)c2ccccc2Cl)c1
Response: 99.1

Prompt: Note down GFP response vs DMSO recorded for COc1ccc(/C=C/C(=O)c2c(O)cc(C)oc2=O)c(OC)c1
Response: 103

Prompt: Note down GFP response vs DMSO recorded for CCOC(=O)c1ccccc1NC(=O)c1c(O)c2ccccc2n(CC)c1=O
Response: 96.2

Prompt: Note down GFP response vs DMSO recorded for CCCc1cc(NCc2ccccn2)n2nc(C)c(-c3ccccc3)c2n1
Response: 91.2
